- ASSAY_EXPLANATION: Inhibition of Escherichia coli BL21(DE3) methionine aminopeptidase in presence of Mn(II) metal ions
TEST_READOUT: log10 of IC50 (log10 of the value in µM)
Values are log10 of IC50 in µM.

For reference, reported log10 of IC50 for "Oc1ccc(-c2cc(Cl)sc2Cl)cc1O" stands at 1.69

For reference, reported log10 of IC50 for "Cc1ccc(-c2ccc(O)c(O)c2)s1" stands at 1.45

For reference, reported log10 of IC50 for "CCCCc1ccsc1-c1ccc(O)c(O)c1" stands at 1.68

====

- Test system: Escherichia coli BL21(DE3)
- ASSAY_EXPLANATION: Inhibition of Escherichia coli BL21(DE3) methionine aminopeptidase up to 100 uM in presence of Fe(II) metal ions
Calls of active or inactive are those of the source. No cut-off for these calls is given here.
TEST_READOUT: Activity

# example entries with known answers
Cc1nc(-c2ccc(O)c(C(N)=O)c2)cs1 : inactive
CC(=O)Nc1ccc(-c2csc(C)n2)cc1[N+](=O)[O-] : inactive
Cc1nc(-c2cccc(O)c2)cs1 : inactive
Cc1nc(-c2ccc(N)c(N)c2)cs1 : inactive
COc1ccc(-c2csc(C)n2)cc1OC : inactive

For reference, reported Activity for "Cc1nc(-c2ccc(N)c([N+](=O)[O-])c2)cs1" stands at inactive

For reference, reported Activity for "Cc1nc(-c2ccc(O)cc2O)cs1" stands at inactive
